Listed here: compounds with reported IC50 for Histone deacetylase 1 (Homo sapiens).
parameterMeasured: IC50

| itemSmiles | parameterMeasured | result |
| --- | --- | --- |
| Nc1ccc(-c2nn(CCCCC(=O)NO)c3ncnc(N)c23)cn1 | IC50 | > 1000 nM |
| Nc1nc2cc(-c3nn(CCCCCCC(=O)NO)c4ncnc(N)c34)ccc2o1 | IC50 | 0.78 nM |
| Nc1nc2cc(-c3nn(CC4CCN(C(=O)CCCCC(=O)NO)CC4)c4ncnc(N)c34)ccc2o1 | IC50 | 65 nM |
| Nc1nc2cc(-c3nn(CC4CCN(C(=O)c5ccc(C(=O)NO)s5)CC4)c4ncnc(N)c34)ccc2o1 | IC50 | 5.9 nM |
| Nc1nc2cc(-c3nn(CC4CCN(c5ncc(C(=O)NO)cn5)CC4)c4ncnc(N)c34)ccc2o1 | IC50 | 0.91 nM |
